System: Saccharomyces cerevisiae
Method summary: protein stability index of tFT-peptide fusion (C-terminal peptide) (PSI (0-1 scale)); higher = more stable (slower turnover)
Recorded conditions: genetic background: wild type; temperature: 30 C
Label rule, in plain words: protein stability index of 0.7 and up is fulfilled, under 0.7 is not fulfilled.

1. KRIDSYIDEMTT [MCO14 C-terminal 12 aa]; not fulfilled
2. HYPLNSIPFTVT [YMR326C C-terminal 12 aa]; fulfilled
3. IMLTLLMFTGAV [PLB3 C-terminal 12 aa]; not fulfilled
4. TIIYPLFIFFSL [YMR105W-A C-terminal 12 aa]; not fulfilled
5. ILGNMEKKKNQD [EPS1 C-terminal 12 aa]; fulfilled
6. KYFLRMVYPMKV [ESBP6 C-terminal 12 aa]; not fulfilled
7. GKDITDQPCIDL [SSP2 C-terminal 12 aa]; fulfilled
8. ATGGKKTTFADE [RPA14 C-terminal 12 aa]; not fulfilled
9. QELCADSTIYHM [LIP1 C-terminal 12 aa]; fulfilled
10. FSALVLRGVRGE [YBR196C-B C-terminal 12 aa]; not fulfilled
11. PQGAGRGRGMPM [CCT7 C-terminal 12 aa]; not fulfilled
12. AGTENDEEEFNI [PSF2 C-terminal 12 aa]; not fulfilled
13. LNPIRSLRYCNY [YPP1 C-terminal 12 aa]; not fulfilled
14. ESHQDKTEEDIH [OKP1 C-terminal 12 aa]; fulfilled

---

System: Saccharomyces cerevisiae
Method summary: protein stability index of tFT-peptide fusion (C-terminal peptide) (PSI (0-1 scale)); higher = more stable (slower turnover)
Recorded conditions: genetic background: wild type; temperature: 30 C
Parameter measured: protein stability index

1. RCTLSSFIYFCP; 0.601
2. FVGFVFSSAVGL; 0.684
3. PPPPPDAPRSSL; 0.704
4. GGPSLLEGGAWA; 0.644
5. RGKGGKKRRKRD; 0.648
6. ASVVEVSSLSLL; 0.629
7. PPGLPPIRCPPT; 0.631
8. PSELGAGYVMGG; 0.694
9. STNARRLWGRGV; 0.699
10. LSDFFLDREGRV; 0.654
11. RILPPPPPPSSR; 0.754
12. NGTLQKGGLRRQ; 0.655
13. CCGWSGCVSGVL; 0.717
14. FSEKLLRSSVYR; 0.639
15. RPRKPGLACKHL; 0.652
16. PNHLDPPTLHVN; 0.714
17. VFSTFGSCHICC; 0.636
18. SWGDVGSWLGGV; 0.663
19. YPAVNLVPPPDV; 0.675

---

System: Saccharomyces cerevisiae
Method summary: protein stability index of tFT-peptide fusion (C-terminal peptide) (PSI (0-1 scale)); higher = more stable (slower turnover)
Recorded conditions: genetic background: doa10 deletion; temperature: 30 C
Label rule, in plain words: protein stability index of 0.3 and up is Condition met, under 0.3 is Condition not met.

1. IISPLRLLPLFF; Condition not met
2. RGGPPPCPLLAA; Condition met
3. TCRLIQLTVTLH; Condition not met
4. SLPCCKVVFCVI; Condition met
5. RAEASFFLPKVG; Condition met
6. VFRHFYTFLALC; Condition not met
7. VCMVLCRWRGLG; Condition not met
8. PAVRRLTGLMLM; Condition not met
9. YFIVVSWFLVCW; Condition not met
10. PPPPPPLPSSFP; Condition met

---

Test system: Saccharomyces cerevisiae
Method summary: protein stability index of tFT-peptide fusion (C-terminal peptide) (PSI (0-1 scale)); higher = more stable (slower turnover)
Recorded conditions: genetic background: wild type; temperature: 30 C
Parameter measured: protein stability index

1) ARLHMSLFRPPA; 0.646
2) RGGWVVVLGCVG; 0.501
3) GPGTSSVARPVS; 0.735
4) IEESNKKIKNEI; 0.713
5) PRGWAGGQITPR; 0.686
6) PCVISRPPRLFP; 0.752
7) RCPRRASSPTLS; 0.843
8) LPPPRPPASPSL; 0.677
9) YYLHFRFFIYVF; 0.113
10) WVTKGLYIMSTK; 0.663
11) MESIIHPNSGIV; 0.744
12) SDTHYLAGELCT; 0.596
13) VGGRDDGFVWEG; 0.667
14) VFYVGGGSVVRG; 0.663
15) YPRGFPTLSYSS; 0.727
16) ELHEETEKSKYR; 0.74
17) GIKKNKIKKKKI; 0.624
18) VCVCSVPNLGLW; 0.675
19) PSLSDPLAPPQG; 0.757

---

Test system: Saccharomyces cerevisiae
Method summary: protein stability index of tFT-peptide fusion (C-terminal peptide) (PSI (0-1 scale)); higher = more stable (slower turnover)
Recorded conditions: genetic background: wild type; temperature: 30 C
Each item that follows carries a reported protein stability index.
Parameter measured: protein stability index

1) WSPVPVPPPLPT; 0.722
2) GAHRRDTYTVIG; 0.682
3) VGCQAIESRLHL; 0.737
4) WGRGHPIYVCRV; 0.689
5) KLVGASVYECQR; 0.672
6) ESEGSGVGACGG; 0.681
7) LFSPPPPPIPSP; 0.73
8) GRRVKTVNSLGL; 0.709
9) LPPPSFPSISLF; 0.675
10) VLGPWVLSVLWF; 0.546
11) YWFVFGEFSGGR; 0.716
12) NIRETVILRIMQ; 0.606
13) RNRVVPITARLT; 0.545
14) HSLPPPCLHSTP; 0.683
15) WGGGPGLRVVGG; 0.731
16) GGGRGEVEGHSG; 0.709
17) VILCPVCFPEEK; 0.665
18) QIEEDINLVTCN; 0.739
19) FPGLFLFVLLPG; 0.505

---

Tested on: Saccharomyces cerevisiae
Method summary: protein stability index of tFT-peptide fusion (C-terminal peptide) (PSI (0-1 scale)); higher = more stable (slower turnover)
Recorded conditions: genetic background: wild type; temperature: 37 C
Each item that follows carries a reported protein stability index.
Parameter measured: protein stability index

1) RVSECVSVVGWM; 0.715
2) LLLFLHILRYVF; 0.529
3) SFLACFVLAFFC; 0.411
4) GPCRPWIVVYAG; 0.512
5) RWCLELLWITSC; 0.0678
6) VVIYWFLPIIFA; 0.224
7) VRGAVGGWRLVG; 0.23
8) FLPGEAVFVYCR; 0.65
9) LDHGRVVWVVVS; 0.284
10) APPSRRLTLRLA; 0.32
11) LPAICFWCVLVG; 0.21
12) IWVFSVTGWCGC; 0.532
13) LPPSPPCQSPAL; 0.685
14) GGGEGVVWVRLG; 0.19
15) AFRFHTYFLLLC; 0.0696
16) QLIDVGLLNCAA; 0.562
17) CCVLGDRCIGSD; 0.718
18) PRRVTVPGVPPL; 0.704
19) SPGGALVFFVLV; 0.606

---

Test system: Saccharomyces cerevisiae
Method summary: protein stability index of tFT-peptide fusion (C-terminal peptide) (PSI (0-1 scale)); higher = more stable (slower turnover)
Recorded conditions: genetic background: cdc53-1; temperature: 37 C
Label rule, in plain words: protein stability index of 0.4 and up is criterion met, under 0.4 is criterion not met.

1. GVGAISLGFSWL; criterion met
2. FPLPPPGSPPPL; criterion met
3. VRYCFFWVRAVV; criterion not met
4. MDLVSEYKIKVN; criterion met
5. SLPCCKVVFCVI; criterion met
6. AKVFGLILVLLT; criterion not met
7. ERWSPWIVVFTN; criterion met
8. WLGCVLIGWHVL; criterion met
9. SGPCSPRNLRRL; criterion met
10. FCMLCVVFLGSL; criterion met
11. PRSLHVLSRFLP; criterion met
12. YPGMFLQLVWWI; criterion met
13. KRKKHKRKLVIC; criterion met
14. QWTVRNQGVMQR; criterion met
15. WSLRFRRMMLRC; criterion met
16. AWVLISNRRRIM; criterion met
17. WVVVKITAHTAT; criterion not met
18. CVFFCVLVCFLS; criterion not met
19. FTRLDYKRIKIV; criterion met
20. EMSIISVLRVIS; criterion met
21. CVVLCLFCWCML; criterion met
22. FLIFGMVDFAVV; criterion not met
23. LLPSNFLLLVGV; criterion not met
24. FLLFFVLRLLPC; criterion not met
25. NMRYRATIEACA; criterion not met
26. LLGDFAVLTCVF; criterion met
27. FYACRLWLVSVR; criterion not met
28. RGPSQVIVAFFV; criterion met
29. DRYSFYGYVVVL; criterion met
30. GSLHVISVVGML; criterion met
31. KKKQAILRTLKI; criterion met
32. LLFVLWLSFFVL; criterion not met
33. DVCGVRYVLFVL; criterion met
34. GKVSSFVLFHIS; criterion met
35. VNFVLTLYPYLV; criterion met
36. FFLLLLRPPLVM; criterion not met
37. LVLLRLSSLTIF; criterion met
38. LGVLVVCFNATY; criterion not met
39. IWVFSVTGWCGC; criterion met
40. FGVECDLCLFCC; criterion met
41. INILVIWRKNHV; criterion met
42. FFVEFFLLCFCS; criterion met
43. RCSLFAKQVVSL; criterion met
44. VGASLVVIAIGV; criterion met
45. PSRRLRHFATSP; criterion met
46. RKKKRNKKKMIM; criterion met
47. RHVFLRIKVLNL; criterion met
48. APPFPSLSSFAP; criterion met
49. CPYSNAFALCVF; criterion not met
50. CIIAVMISIVSF; criterion not met
51. CLAGALSWLRRG; criterion met
52. GLSVFFFVGFIF; criterion met
53. RYVVVGACIQVV; criterion met
54. SFLACFVLAFFC; criterion met
55. GFALGSFMLVLR; criterion not met
56. LSPLPSPLILVV; criterion not met
57. EWFFCLGLFRFH; criterion met
58. VYLVVLYLRYFA; criterion not met
59. VCRCFPVCLFSF; criterion met
60. LFLVFIGLFFLT; criterion met
61. LSFFFWFIFSLC; criterion met
62. VRGAVGGWRLVG; criterion met
63. CFVWFSVVLLFA; criterion not met
64. TNHRVRHWILRV; criterion met
65. AVLSFVLVRSVV; criterion met
66. GYTVYARRLIMC; criterion not met
67. RPRVAGLMTLVS; criterion met
68. FFVSFFFFLWLV; criterion not met
69. LPAICFWCVLVG; criterion not met
70. FWVNFLFVLFIL; criterion not met
71. PFYQSGGLVVVV; criterion met
72. SVQICGFWLILG; criterion met
73. SLVIRLNIRLIL; criterion met
74. PPRPLHPPCRPP; criterion met
75. AGLLVLISWRLF; criterion not met
76. WLKLWSYVTHLG; criterion met
77. RVEPYDLARRVL; criterion met
78. LVGLESCGERAG; criterion met
79. VVLVGVAVCRLG; criterion met

// data source = the supplement of paper PMC10724198
